- Test system: PSMA-expressing LNCAP cancer xenografts
- test-name: Biodistribution and tumor-to-background contrast ratios of 18F-labeled tracers
- Assay type: in vivo, mouse (NODSCID 1L2RγKO male mice)
- assay-setup: 1 h
experimental-endpoint: Biodistribution Stomach (% ID/g)

{"compound": "C[N+](C)(Cc1cn(CC(=O)NCCOCCOCCC(=O)N[C@@H](Cc2ccc3ccccc3c2)C(=O)NCCCC[C@H](NC(=O)N[C@@H](CCC(=O)O)C(=O)O)C(=O)O)nn1)C[B-](F)(F)[18F] [^18F-HTK01146]", "test-system": "PSMA-expressing LNCAP cancer xenografts", "Biodistribution Stomach (% ID/g)": 0.21}
{"compound": "C[N+](C)(Cc1ccc(C(=O)NCCCC[C@H](NC(=O)N[C@@H](CCC(=O)O)C(=O)O)C(=O)O)cc1)C[B-](F)(F)[18F]", "test-system": "PSMA-expressing LNCAP cancer xenografts", "Biodistribution Stomach (% ID/g)": 0.12}
{"compound": "C[N+](C)(Cc1cn(Cc2ccc(C(=O)NCCCC[C@H](NC(=O)N[C@@H](CCC(=O)O)C(=O)O)C(=O)O)cc2)nn1)C[B-](F)(F)[18F]", "test-system": "PSMA-expressing LNCAP cancer xenografts", "Biodistribution Stomach (% ID/g)": 0.10}
{"compound": "O=C(O)CC[C@H](NC(=O)N[C@@H](CCCCNC(=O)c1ccc(Cn2cc(C[n+]3ccc([B-](F)(F)[18F])cc3)nn2)nc1)C(=O)O)C(=O)O [^18F-PSMA PyrBF3]", "test-system": "PSMA-expressing LNCAP cancer xenografts", "Biodistribution Stomach (% ID/g)": 0.15}

(P) O=C(O)CC[C@H](NC(=O)N[C@@H](CCCCNC(=O)[C@H](Cc1ccc2ccccc2c1)NC(=O)[C@H]1CC[C@H](CNC(=O)Cn2cc(C[n+]3ccc([B-](F)(F)[18F])cc3)nn2)CC1)C(=O)O)C(=O)O [^18F-PSMA-617-PyrBF3]
(Q) C[N+](C)(Cc1cn(Cc2ccc(C(=O)NCCCC[C@H](NC(=O)N[C@@H](CCC(=O)O)C(=O)O)C(=O)O)cn2)nn1)C[B-](F)(F)[18F] [^18F-HTK01130]
(R) C[N+](C)(Cc1cn(CC(=O)NC[C@H]2CC[C@H](C(=O)N[C@@H](Cc3ccc4ccccc4c3)C(=O)NCCCC[C@H](NC(=O)N[C@@H](CCC(=O)O)C(=O)O)C(=O)O)CC2)nn1)C[B-](F)(F)[18F] [^18F-HTK01157]
// sort entries: Biodistribution Stomach, high to low Provide the ranking by listing each label in its place in the requested order.
P, R, Q
